biological target: recombinant human kidney mSR (Homo sapiens, UniProt Q9NXK6); construct: The coding region of the steroid membrane receptor was amplified by PCR from a full-length cDNA plasmid clone; assay: 3H-progesterone binding to recombinant human kidney mSR (saturation, kinetics, competition); conditions: Scatchard analysis, 3H-progesterone 0.5-40 nM
Sequence (Q9NXK6 whole entry): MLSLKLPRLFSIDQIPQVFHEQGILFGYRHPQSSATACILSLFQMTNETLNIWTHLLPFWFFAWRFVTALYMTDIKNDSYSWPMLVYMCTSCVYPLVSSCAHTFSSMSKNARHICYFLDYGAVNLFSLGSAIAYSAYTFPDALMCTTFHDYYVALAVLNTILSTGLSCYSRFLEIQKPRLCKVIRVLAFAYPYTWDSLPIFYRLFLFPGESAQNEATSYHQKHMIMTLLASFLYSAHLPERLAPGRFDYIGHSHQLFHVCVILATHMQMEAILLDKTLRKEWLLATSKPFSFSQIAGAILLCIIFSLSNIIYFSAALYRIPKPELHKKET
Observable: Kd (nM)
Just the number in nM, nothing appended.

Prompt: Need Kd, item CC(=O)[C@H]1CC[C@H]2[C@@H]3CCC4=CC(=O)CC[C@]4(C)[C@H]3CC[C@]12C
Response: 28

###

molecular target: seatrout recombinant mPR produced in E. coli (Cynoscion nebulosus, UniProt Q801D8); construct: The coding region of the steroid membrane receptor was amplified by PCR from a full-length cDNA plasmid clone; made in house; host or cells: E. coli BL21 (DE3), pET vector; assay: Steroid binding to recombinant seatrout mPR produced in E. coli (single-point, competition, saturation, kinetics); details: single-point assay, 10 nM 3H-steroid with or without 100-fold excess non-radioactive steroid
Sequence (Q801D8 whole entry): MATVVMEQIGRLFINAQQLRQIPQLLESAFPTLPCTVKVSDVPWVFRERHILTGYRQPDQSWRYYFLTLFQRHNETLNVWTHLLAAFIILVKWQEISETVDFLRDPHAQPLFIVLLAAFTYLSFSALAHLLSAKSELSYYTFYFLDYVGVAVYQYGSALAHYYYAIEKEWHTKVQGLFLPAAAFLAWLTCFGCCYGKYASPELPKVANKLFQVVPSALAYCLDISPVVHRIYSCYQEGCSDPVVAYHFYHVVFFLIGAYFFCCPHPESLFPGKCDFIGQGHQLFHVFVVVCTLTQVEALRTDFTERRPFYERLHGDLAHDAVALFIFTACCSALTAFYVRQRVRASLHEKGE
Observable: specific binding of 3H-steroid (steroid specificity)

> print(dat)
                                   molecule               result
1  C[C@]12CCC(=O)C[C@@H]1CC[C@@H]1[C@@H]2CC[C@]2(C)[C@@H](O)CC[C@@H]12 [5α-dihydrotestosterone]  no specific binding
2  C[C@]12CC[C@H]3[C@@H](CCC4=CC(=O)CC[C@@]43C)[C@@H]1CC[C@@H]2O [testosterone]  no specific binding

###

target: seatrout recombinant mPR produced in E. coli (Cynoscion nebulosus); construct: The coding region of the steroid membrane receptor was amplified by PCR from a full-length cDNA plasmid clone; assay: Steroid binding to recombinant seatrout mPR produced in E. coli (single-point, competition, saturation, kinetics)
Observable: Kd
A complete answer gives the number followed by the unit.

Prompt: Form field: Kd recorded for CC(=O)[C@H]1CC[C@H]2[C@@H]3CCC4=CC(=O)CC[C@]4(C)[C@H]3CC[C@]12C with seatrout recombinant mPR produced in E. coli (Cynoscion nebulosus) (enter value)
Response: 30 nM

###

Biological target: recombinant mouse testicular mSR (Mus musculus)
Construct: The coding region of the steroid membrane receptor was amplified by PCR from a full-length cDNA plasmid clone
Sequence (Q80ZE5 1-354): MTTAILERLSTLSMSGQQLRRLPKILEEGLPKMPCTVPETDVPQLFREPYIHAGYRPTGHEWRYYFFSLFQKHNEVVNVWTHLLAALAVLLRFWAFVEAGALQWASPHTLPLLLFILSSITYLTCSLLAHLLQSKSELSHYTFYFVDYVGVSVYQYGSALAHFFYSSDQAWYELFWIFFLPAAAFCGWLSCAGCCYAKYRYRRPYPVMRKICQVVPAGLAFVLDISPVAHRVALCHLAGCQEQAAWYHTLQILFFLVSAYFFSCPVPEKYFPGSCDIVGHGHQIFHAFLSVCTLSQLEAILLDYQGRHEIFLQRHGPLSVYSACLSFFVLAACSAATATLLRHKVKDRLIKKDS
Test: Saturation/Scatchard analysis of 3H-progesterone binding to recombinant mouse testicular mSR
Settings: Scatchard analysis, 3H-progesterone 0.5-40 nM
Observable: Kd (nM)
Just the number in nM, nothing appended.

Prompt: Need Kd, item CC(=O)[C@H]1CC[C@H]2[C@@H]3CCC4=CC(=O)CC[C@]4(C)[C@H]3CC[C@]12C
Response: 29

Entry source: patent US20030170791A1
